Biological target: Hydroxyacylglutathione hydrolase, mitochondrial (Rattus norvegicus) (UniProt O35952)
Experiment: […] inhibitory activity against rat liver glyoxalase II
measuredQuantity: [I] 0.5 (µM)
The reply should contain only the number, in µM.

Some solved cases for reference:
| molecule | unitText | measuredResult |
| --- | --- | --- |
| NC(CCC(=O)NC(CSC(=O)OCc1ccccc1[N+](=O)[O-])C(=O)NCC(=O)O)C(=O)O (centres undefined) | µM | 20 |
| NC(CCC(=O)NC(CSC(=O)OCc1cccc([N+](=O)[O-])c1)C(=O)NCC(=O)O)C(=O)O (centres undefined) | µM | 15 |
| NC(CCC(=O)NC(CSC(=O)OCc1ccccc1)C(=O)NCC(=O)O)C(=O)O (centres undefined) | µM | 165 |

Now for another entry.
INPUT: Value wanted: [I] 0.5 (Hydroxyacylglutathione hydrolase, mitochondrial (Rattus norvegicus) (UniProt O35952)) of entry NC(CCC(=O)NC(CSC(=O)OCc1ccc([N+](=O)[O-])cc1)C(=O)NCC(=O)O)C(=O)O (centres undefined)
OUTPUT: 12
